Numbers sourced from patent US7923465B2.

Entries and their inhibition
- target_of_assay: UniProt:P20272
- assay_name: Rat CB1 receptor binding using brain membrane, [3H]SR141716A displacement (Protocol I)
- Set-up: CB1 receptor present in a rat brain membrane preparation; from tissue; host or cells: rat brain membrane; dose or concentration left out as unconfirmed
- test_conditions: 1 h; rat brain membrane, [3H]SR141716A displacement; read-out: % Displacement Protocol I
Return type: number; implicit unit %.

// solved cases for inhibition follow
{"compound": "O=C(NCc1ccc(F)cc1)c1nn(-c2ccc(Cl)cc2Cl)c2c1C1CC3CC(C1)CC2C3 [Example 172]", "inhibition (%)": 59.2}
{"compound": "O=C(NNc1cccc(F)c1)c1nn(-c2ccc(Cl)cc2Cl)c2c1C1CCC2C1 (centres unmarked) [Example 266]", "inhibition (%)": 34.5}
{"compound": "O=C(NN1CCOCC1)c1nn(-c2ccc(Cl)cc2)c2c1C1CC3CC(C1)CC2C3 [Example 103]", "inhibition (%)": 22.2}
{"compound": "O=C(NNc1ccc(F)cc1F)c1nn(-c2ccc(Cl)cc2)c2c1C1CCC2C1 (centres unmarked) [Example 235]", "inhibition (%)": 46.8}
{"compound": "O=C(NCc1ccccc1)c1nn(-c2ccccc2Br)c2c1C1CCC2C1 (centres unmarked) [Example 272]", "inhibition (%)": -4.5}
{"compound": "O=C(NCc1ccc(Cl)cc1Cl)c1nn(-c2ccc(Cl)cc2)c2c1C1CCC2C1 (centres unmarked) [Example 223]", "inhibition (%)": 52.1}
{"compound": "O=C(NCc1ccccn1)c1nn(-c2ccc(Cl)cc2)c2c1C1CC3CC(C1)CC2C3 [Example 120]", "inhibition (%)": 30.4}
{"compound": "O=C(NNc1ccc(F)cc1F)c1nn(-c2ccc(Cl)cc2)c2c1C1CC3CC(C1)CC2C3 [Example 132]", "inhibition (%)": 64.5}

input: For the record O=C(NCCc1ccc(F)cc1)c1nn(-c2ccc(Cl)cc2Cl)c2c1C1CCC2C1 (centres unmarked) [Example 255] , what value of inhibition is listed for UniProt:P20272?
output: 23.9

input: # get_value(readout= inhibition, system= UniProt:P20272) for O=C(NNc1ccccc1)c1nn(-c2ccccc2Br)c2c1C1CCC2C1 (centres unmarked) [Example 273]
output: -5.9

input: // map O=C(NCc1ccccc1)c1nn(-c2ccccc2)c2c1C1CCC2C1 (centres unmarked) [Example 203] to recorded inhibition (system: UniProt:P20272)
output: -10.4

----------
- target_of_assay: CB1 (Rattus norvegicus, UniProt P20272)
- Sequence (P20272 whole entry): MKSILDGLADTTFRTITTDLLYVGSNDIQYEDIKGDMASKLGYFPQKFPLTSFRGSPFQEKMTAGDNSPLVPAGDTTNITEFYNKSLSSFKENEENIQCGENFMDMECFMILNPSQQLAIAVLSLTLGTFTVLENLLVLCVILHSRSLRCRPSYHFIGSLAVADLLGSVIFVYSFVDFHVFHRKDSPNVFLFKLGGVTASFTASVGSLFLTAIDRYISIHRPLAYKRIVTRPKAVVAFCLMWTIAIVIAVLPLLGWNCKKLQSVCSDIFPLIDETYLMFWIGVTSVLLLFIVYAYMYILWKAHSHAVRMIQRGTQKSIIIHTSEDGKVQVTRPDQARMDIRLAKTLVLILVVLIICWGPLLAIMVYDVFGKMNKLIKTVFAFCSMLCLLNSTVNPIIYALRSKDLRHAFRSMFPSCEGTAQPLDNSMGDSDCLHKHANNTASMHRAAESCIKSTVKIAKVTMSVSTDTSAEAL
- assay_name: Rat CB1 receptor binding using brain membrane, [3H]SR141716A displacement (Protocol I)
- Parameters: CB1 receptor present in a rat brain membrane preparation; from tissue; host or cells: rat brain membrane; dose or concentration left out as unconfirmed
- test_conditions: 1 h; rat brain membrane, [3H]SR141716A displacement; read-out: % Displacement Protocol I
Tick 1 (yes) if inhibition is 20% or greater. Tick 0 (no) if inhibition is less than 20%.

{"compound": "O=C(NNc1ccc(F)cc1)c1nn(-c2ccc(Cl)cc2)c2c1C1CC3CC(C1)CC2C3 [Example 130]", "target_of_assay": "CB1 (Rattus norvegicus, UniProt P20272)", "assigned_label": "1 (yes)"}
{"compound": "O=C(NNc1ccc(Cl)cc1)c1nn(-c2ccc(Cl)cc2Cl)c2c1C1CCC2C1 (centres unmarked) [Example 259]", "target_of_assay": "CB1 (Rattus norvegicus, UniProt P20272)", "assigned_label": "0 (no)"}
{"compound": "O=C(NNc1ccccc1)c1nn(-c2ccc(Br)cc2)c2c1C1CCC2C1 (centres unmarked) [Example 277]", "target_of_assay": "CB1 (Rattus norvegicus, UniProt P20272)", "assigned_label": "0 (no)"}
{"compound": "O=C(NCc1ccccc1)c1nn(-c2ccc(Cl)cc2Cl)c2c1C1CCC2c2ccccc21 (centres unmarked) [Example 501]", "target_of_assay": "CB1 (Rattus norvegicus, UniProt P20272)", "assigned_label": "1 (yes)"}
{"compound": "O=C(NNc1ccc(Cl)cc1Cl)c1nn(-c2ccc(Cl)cc2Cl)c2c1C1CCC2C1 (centres unmarked) [Example 260]", "target_of_assay": "CB1 (Rattus norvegicus, UniProt P20272)", "assigned_label": "1 (yes)"}

input: Hi team, for Cc1ccc(-n2nc(C(=O)NN3CCCCC3)c3c2C2CC4CC(CC3C4)C2)cc1 [Example 160] , is the recorded inhibition at or above 20%?
output: 0 (no)

input: Please check the record O=C(NCc1ccccc1)c1nn(-c2ccc(F)cc2)c2c1C1CCC2C1 (centres unmarked) [Example 280] and state if its inhibition is at or above 20%.
output: 1 (yes)

input: Could you please find out whether O=C(NNc1ccccc1F)c1nn(-c2ccc(Cl)cc2)c2c1C1CCC2C1 (centres unmarked) [Example 232] has inhibition that meets 20% or exceeds it?
output: 1 (yes)

input: Given the entry O=C(NN1CCCCC1)c1nn(-c2ccc(Cl)cc2Cl)c2c1C1CC3CC(C1)CC2C3 [Example 180] , answer whether its inhibition meets or surpasses 20%.
output: 1 (yes)
